test.system: HLA-A*23:01
test.name: IEDB peptide-MHC binding, purified MHC/competitive/radioactivity; filed as Kd, often an IC50 or EC50 that approximates it; bounds were set here for any values at or beyond the usual limits of such assays
condition.set: source organism: Lymphocytic choriomeningitis virus (strain Armstrong)
Collected Kd values appear next to each entry.
parameter.measured: Kd (nM)

[[record]]
item_sequence = "DYFESFSSFF"
test_system = "HLA-A*23:01"
units_label = "nM"
lt_gt_eq = "="
recorded_value = 4.72

[[record]]
item_sequence = "RYQVVECKEV"
test_system = "HLA-A*23:01"
units_label = "nM"
lt_gt_eq = "≥"
recorded_value = 70000

